Here's a batch of molecules along with measured pKd for MTH1 (Homo sapiens).
pKd: −log10 of the molar value.

| Molecule | pKd |
| --- | --- |
| CO[C@@]1(c2cc(O)cc(O)c2)C=C(CCCC(CO)CC/C=C(\C)COC(=O)/C=C/c2ccc(O)cc2)C(=O)O1 (some centres unmarked) [Compound 2] | 5.62 |
| C/C(=C\CCC(CO)CCCC1=C[C@@H](c2cc(O)ccc2O)OC1=O)COC(=O)/C=C/c1ccc(O)cc1 (some centres unmarked) [Compound 4] | 5.33 |
| CO[C@]1(c2cc(O)ccc2O)C=C(CCCC(CO)CC/C=C(\C)COC(=O)/C=C/c2ccc(O)cc2)C(=O)O1 (some centres unmarked) [Compound 5] | 3.53 |
| CO[C@]1(c2cc(O)cc(O)c2)C=C(CCCC(CO)CC/C=C(\C)COC(=O)/C=C/c2ccc(O)cc2)C(=O)O1 (some centres unmarked) [Compound 1] | 5.33 |
| CO[C@@]1(c2cc(O)cc(O)c2)C=C(CC/C=C(\CO)CC/C=C(\C)COC(=O)/C=C/c2ccc(O)cc2)C(=O)O1 [Compound 8] | 3.68 |
